system: Phytophthora infestans; assay: whole plant or invertebrate; format: in vivo; settings: Phytophthora infestans, in Solanum lycopersicum, topical, 144 h, read-out: Test F disease control rating
MEASUREMENT_NAME: pest or weed control at 200 ppm (%)
Quick reminder: number only, in %, skip the unit.

Problem: Requested field: pest or weed control at 200 ppm. Item: CCC(C)Cn1c(-c2ccc(F)cc2F)c(C)nc(C#N)c1=NC(C)=O (stereo not drawn)
Solution: 0

Problem: Requested field: pest or weed control at 200 ppm. Item: Cc1nc(-n2cccn2)c(=O)n(CC(C)C)c1-c1c(F)cccc1F
Solution: 0

Problem: Requested field: pest or weed control at 200 ppm. Item: CC(C)Cn1c(-c2c(F)cccc2F)c(Br)nc(-n2cccn2)c1=O
Solution: 0

Problem: Requested field: pest or weed control at 200 ppm. Item: CC(C)Cn1c(-c2c(F)cccc2F)cnc(-n2cccn2)c1=O
Solution: 0

Problem: Requested field: pest or weed control at 200 ppm. Item: CCC(C)Cn1c(-c2ccc(F)cc2F)c(C)nc(C#N)c1=N (stereo not drawn)
Solution: 0

Problem: Requested field: pest or weed control at 200 ppm. Item: CCC(C)Cn1c(-c2c(F)cccc2F)c(Cl)nc(C(N)=O)c1=O (stereo not drawn)
Solution: 100

Problem: Requested field: pest or weed control at 200 ppm. Item: CC(C)Cn1c(-c2c(F)cccc2F)c(Cl)nc(-c2ccccn2)c1=O
Solution: 0

Problem: Requested field: pest or weed control at 200 ppm. Item: CC(C)Cn1c(-c2ccc(F)cc2Cl)c(Cl)nc(-n2cccn2)c1=O
Solution: 0

Problem: Requested field: pest or weed control at 200 ppm. Item: NC(=O)c1nc(Cl)c(-c2c(F)cc(F)cc2F)n(-c2cccc(F)c2)c1=O
Solution: 85

Attribution: patent US20080194585A1
